inhibition for assorted compounds
Target: Aminopeptidase N (Plasmodium falciparum (isolate 3D7))
Assay: malaria alanyl aminopeptidase activity blockers – biochemical, fluorogenic H-Leu-NHMec substrate, 1536-well (AID 1445);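 further: plate controls were DMSO full reaction for no effect and no enzyme background for full effect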
Conditions: recombinant M1AAP, H-Leu-NHMec fluorogenic kinetic assay; at 30 µM, hits give high values unless noted
The whole screen tested about 220,000 compounds, of which about 910 (0.41%) were called active. The entries come from a sample that favours actives as a whole. Potency and affinity values are given separately.
Give a bare numeral; the unit % is implied.

compound: NC(=S)N=Nc1c(O)[nH]c2ccccc12
system: Aminopeptidase N (Plasmodium falciparum (isolate 3D7))
unit: %
numeric-readout: 23.1
--
compound: Cc1c(C(=O)NCC(C)C)sc2nc(-c3ccc(F)cc3)cn12
system: Aminopeptidase N (Plasmodium falciparum (isolate 3D7))
unit: %
numeric-readout: -1.14
--
compound: Cc1nc(NCc2ccccc2)sc1C(=O)Nc1ccccc1
system: Aminopeptidase N (Plasmodium falciparum (isolate 3D7))
unit: %
numeric-readout: -1.78
--
compound: CCc1cc(=O)oc2cc(C)c(CN3CCCC(C)C3)c(O)c12 (stereo unspecified)
system: Aminopeptidase N (Plasmodium falciparum (isolate 3D7))
unit: %
numeric-readout: 2.92
--
compound: CC1CCCCN1Cc1c(O)ccc2c(=O)c(-c3nc4ccccc4s3)c(N)oc12 (stereo unspecified)
system: Aminopeptidase N (Plasmodium falciparum (isolate 3D7))
unit: %
numeric-readout: 17.1

Switching to the query record.
Query: # input compound: CC(C)(O)C(=O)N=Nc1c(O)[nH]c2ccccc12 ; wanted: its inhibition
Result: 1.86
